B1: PTPLAD1 (parent)
chain: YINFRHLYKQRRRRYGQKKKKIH

Variants of: B1
METHOD DESCRIPTION: protein stability index of a GFP-peptide fusion (GPS, HEK-293T) (PSI 1-6); higher = more stable;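 also: lentivirally expressed fusions sorted by FACS into six bins by GFP to DsRed ratio, PSI derived from sequencing read proportions per bin multiplied by bin number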
MEASUREMENT PARAMETERS: c terminus: native
Reported protein stability index values are given for each entry in this list.
# output: bare number, no unit

Illustrative cases are given below, each with its answer.
| MUTANT ID | OBSERVED RESULT |
| --- | --- |
| R5G | 1.38 |
| Q17W | 1.63 |

Look up protein stability index for this variant: Q10Y
2.06

Look up protein stability index for this variant: Q10L
2.14

Look up protein stability index for this variant: H6S
1.84

Look up protein stability index for this variant: H6E
1.73

Look up protein stability index for this variant: H6Y
1.88

src = the supplement of paper PMC10567573
